Each recorded value in this set is attributed to ChEMBL document CHEMBL1177725.

Reported values of Ki for individual entries
molecular target: Sodium-dependent serotonin transporter (Homo sapiens, UniProt P31645); assay: Displacement of [N-methyl-3H]citalopram from human recombinant SERT expressed in pig LLCPK cells after 2 hrs by liquid scintillation counting; format: cell-based
Sequence (P31645 whole entry): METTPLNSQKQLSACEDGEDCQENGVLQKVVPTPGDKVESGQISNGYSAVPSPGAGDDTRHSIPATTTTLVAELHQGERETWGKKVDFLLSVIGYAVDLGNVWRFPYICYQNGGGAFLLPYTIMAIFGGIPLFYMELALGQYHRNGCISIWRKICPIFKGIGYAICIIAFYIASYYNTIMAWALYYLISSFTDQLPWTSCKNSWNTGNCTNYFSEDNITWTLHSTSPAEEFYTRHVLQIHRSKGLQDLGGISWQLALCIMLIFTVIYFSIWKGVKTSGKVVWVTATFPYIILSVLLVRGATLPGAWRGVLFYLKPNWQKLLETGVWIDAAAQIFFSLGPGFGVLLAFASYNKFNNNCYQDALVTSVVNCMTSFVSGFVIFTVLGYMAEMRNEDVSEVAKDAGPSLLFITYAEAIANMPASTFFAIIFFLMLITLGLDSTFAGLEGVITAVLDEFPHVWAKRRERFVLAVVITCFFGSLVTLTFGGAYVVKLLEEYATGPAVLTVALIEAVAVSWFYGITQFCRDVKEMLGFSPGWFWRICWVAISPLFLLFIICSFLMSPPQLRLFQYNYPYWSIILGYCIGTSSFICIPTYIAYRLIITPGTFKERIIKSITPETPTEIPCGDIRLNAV
Only the number, expressed in nM, is required.

Example cases with answers are listed next.
compound: COC[C@@]12CNC[C@H](OC)[C@]1(c1ccc(Cl)c(Cl)c1)C2 (racemic)
measured_target: Sodium-dependent serotonin transporter (Homo sapiens, UniProt P31645)
Ki, nM: 100
//
compound: Clc1ccc([C@@H]2CCNC[C@@]23CCCOC3)cc1Cl
measured_target: Sodium-dependent serotonin transporter (Homo sapiens, UniProt P31645)
Ki, nM: 0.316
//
compound: COC[C@H]1[C@@H]2CNCC[C@@]21c1ccc(Cl)c(Cl)c1 (racemic)
measured_target: Sodium-dependent serotonin transporter (Homo sapiens, UniProt P31645)
Ki, nM: 50.1
//
compound: COC[C@@]12CNCC[C@]1(c1ccc(F)c(Cl)c1)C2 (racemic)
measured_target: Sodium-dependent serotonin transporter (Homo sapiens, UniProt P31645)
Ki, nM: 1.58
//
compound: COC[C@@]12CNC[C@@H](OC)[C@]1(c1ccc(Cl)c(Cl)c1)C2 (racemic)
measured_target: Sodium-dependent serotonin transporter (Homo sapiens, UniProt P31645)
Ki, nM: 251

For the compound CCOC[C@@]12CNCC[C@]1(c1ccc(Cl)c(Cl)c1)C2 (racemic) , what Ki is on record?
1.26

Would you kindly share the measured Ki for Clc1ccc([C@@]23CCNC[C@@H]2C3)cc1Cl (relative stereo) ?
39.8

====

The entries below are paired with their reported pKi.
target: Sodium-dependent noradrenaline transporter (Homo sapiens); experiment: Displacement of [N-methyl-3H]nisoxetine from human recombinant NET expressed in pig LLCPK cells after 2 hrs by liquid scintillation counting; assay type: cell-based
Sequence (P23975 whole entry): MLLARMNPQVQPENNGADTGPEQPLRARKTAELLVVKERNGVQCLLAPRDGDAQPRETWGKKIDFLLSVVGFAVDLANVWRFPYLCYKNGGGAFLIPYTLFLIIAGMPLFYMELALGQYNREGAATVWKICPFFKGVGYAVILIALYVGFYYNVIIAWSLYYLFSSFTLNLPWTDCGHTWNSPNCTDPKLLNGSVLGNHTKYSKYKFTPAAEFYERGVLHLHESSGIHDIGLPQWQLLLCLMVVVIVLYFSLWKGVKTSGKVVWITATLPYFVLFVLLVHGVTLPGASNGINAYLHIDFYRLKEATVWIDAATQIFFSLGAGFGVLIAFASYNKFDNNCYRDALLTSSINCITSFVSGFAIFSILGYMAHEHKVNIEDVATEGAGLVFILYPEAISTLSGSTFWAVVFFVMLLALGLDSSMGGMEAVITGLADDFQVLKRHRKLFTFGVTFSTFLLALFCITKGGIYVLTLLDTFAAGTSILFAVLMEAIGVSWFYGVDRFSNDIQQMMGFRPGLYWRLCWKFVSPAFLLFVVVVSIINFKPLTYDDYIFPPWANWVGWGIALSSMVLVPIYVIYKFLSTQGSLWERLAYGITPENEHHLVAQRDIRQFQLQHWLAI
Reminder that pKi means the negative base-10 logarithm of the concentration expressed in mol/L.

compound: C=CCC(OC)[C@]12CNCC[C@]1(c1ccc(Cl)c(Cl)c1)C2 (mixture of isomers; form 1)
measured: 9.00
--
compound: COC[C@@]12CNCC[C@]1(c1ccc(Cl)c(C(F)(F)F)c1)C2 (racemic)
measured: 6.70
--
compound: Clc1ccc([C@]23CCNC[C@@]2(COCC2CC2)C3)cc1Cl (racemic)
measured: 7.30
--
compound: COC[C@@]12CNCC[C@]1(c1ccc3ccccc3c1)C2 (racemic)
measured: 7.90
--
compound: CCOC(=O)[C@@]12CNCC[C@]1(c1ccc(Cl)c(Cl)c1)C2 (racemic)
measured: 8.10
--
compound: CC(=O)[C@@]12CNCC[C@]1(c1ccc(Cl)c(Cl)c1)C2 (relative stereo)
measured: 7.80
--
compound: Clc1ccc([C@@]23CCNC[C@@H]2C3)cc1Cl (single isomer, unassigned)
measured: 7.00
--
compound: OC[C@@]12CNCC[C@]1(c1ccc(Cl)c(Cl)c1)C2 (relative stereo; 14)
measured: 6.40

Looking for the measured pKi of COC[C@@]12CNC[C@@H](OC)[C@]1(c1ccc(Cl)c(Cl)c1)C2 (racemic) , can you help?
5.80

====

target: UniProtKB P31645; assay: Displacement of [N-methyl-3H]citalopram from human recombinant SERT expressed in pig LLCPK cells after 2 hrs by liquid scintillation counting; format: cell-based
pKi: −log10 of the molar value.
Classification field: Y = pKi at or over 8; N = pKi under 8.

molecule: Clc1ccc([C@]23CCN4CC[C@]2(C4)C3)cc1Cl (single isomer, unassigned; 50)
discrete_label: N
--
molecule: Clc1ccc([C@]23CNCC[C@H]2C3)cc1Cl (relative stereo; 5)
discrete_label: N
--
molecule: NC(=O)[C@@]12CNCC[C@]1(c1ccc(Cl)c(Cl)c1)C2 (racemic)
discrete_label: N
--
molecule: Clc1ccc([C@]23CNCC[C@H]2C3)cc1Cl (racemic)
discrete_label: N
--
molecule: C=CCC(OC)[C@]12CNCC[C@]1(c1ccc(Cl)c(Cl)c1)C2 (mixture of isomers; form 1)
discrete_label: Y

With those in mind, consider the next molecule.
Tell me whether pKi is at least 8 here: Clc1ccc([C@]23CCNC[C@@]2(COCC2CC2)C3)cc1Cl (relative stereo; 34)
Y
